Target: CaSho1
Experiment: SPOT peptide array binding signal intensity (averaged, normalized) (arbitrary units (background-subtracted, floor 0; scale differs between SH3 domains)); higher = stronger binding of the SH3 domain to the peptide
Listed here: items and their measured SPOT peptide array binding signal intensity.

INSERT INTO assay_data (binder, measured) VALUES
  ('VPKEPAPAPPPEPDM', 3.5);

Could you now consider this next binder?
**Q:** Look up SPOT peptide array binding signal intensity: IKTRSVPKIPSIESV
**A:** ≤ 0
